Test system: HCT-116 (colon cancer) cell line
methodNotes: MTT cell viability assay, HCT-116
Assay type: cell-based, human
experimentalParameters: Homo sapiens, HCT-116, 72 h, MTT, 72 h, 1-100 µM, mean ± SD
Quick reference for IC50 among some molecules
measurementLabel: IC50 (µM)

smilesinput=Cc1cc(S(=O)(=O)N=c2[nH]c3ccccc3[nH]2)c(SCc2nc(N)nc(N3CCN(c4ccc([N+](=O)[O-])cc4)CC3)n2)cc1Cl comparisonoperator=> recordedresult=100
smilesinput=COc1ccccc1N1CCN(c2nc(N)nc(CSc3cc(Cl)c(C)cc3S(=O)(=O)N=c3[nH]c4ccc(Cl)cc4[nH]3)n2)CC1 comparisonoperator== recordedresult=30
smilesinput=Cc1cc(S(=O)(=O)N=c2[nH]c3ccccc3[nH]2)c(SCc2nc(N)nc(N3CCc4ccccc43)n2)cc1Cl comparisonoperator== recordedresult=25
smilesinput=Cc1cc(S(=O)(=O)N=c2[nH]c3ccc(F)cc3[nH]2)c(SCc2nc(N)nc(N3CCN(c4ccc(Cl)c(Cl)c4)CC3)n2)cc1Cl comparisonoperator== recordedresult=16
smilesinput=Cc1cc(S(=O)(=O)N=c2[nH]c3ccccc3[nH]2)c(SCc2nc(N)nc(Nc3ccc(F)cc3)n2)cc1Cl comparisonoperator== recordedresult=36
smilesinput=Cc1cc(S(=O)(=O)N=c2[nH]c3ccccc3[nH]2)c(SCc2nc(N)nc(N3CCCc4ccccc43)n2)cc1Cl comparisonoperator== recordedresult=32
smilesinput=Cc1cc(S(=O)(=O)N=c2[nH]c3ccc(Cl)cc3[nH]2)c(SCc2nc(N)nc(Nc3ccccc3)n2)cc1Cl comparisonoperator== recordedresult=18
smilesinput=Cc1cc(S(=O)(=O)N=c2[nH]c3ccccc3[nH]2)c(SCc2nc(N)nc(N3CCN(C)CC3)n2)cc1Cl comparisonoperator== recordedresult=42
smilesinput=Cc1cc(S(=O)(=O)N=c2[nH]c3ccc(F)cc3[nH]2)c(SCc2nc(N)nc(N3CCN(c4ccc(F)cc4)CC3)n2)cc1Cl comparisonoperator== recordedresult=14
smilesinput=Cc1cc(S(=O)(=O)N=c2[nH]c3ccccc3[nH]2)c(SCc2nc(N)nc(N(C)C)n2)cc1Cl comparisonoperator== recordedresult=49
smilesinput=Cc1cc(S(=O)(=O)N=c2[nH]c3ccccc3[nH]2)c(SCc2nc(N)nc(Nc3ccccc3)n2)cc1Cl comparisonoperator== recordedresult=37
